Every entry's value here was drawn from the supplement of paper PMC9732359.

Please provide measured protein stability index for the entries that follow.
assaySummary: protein stability index of a GFP-peptide fusion (yeast GPS) (PSI 1-4); higher = more stable; sorted into four equal gates, so the index is relative within each strain
testConditions: san1∆
Answers are plain numbers.

Below is a list of sequences. For each, state its recorded protein stability index.
1. AIRADPAFKPTEKKFTK [RPL5]
2. EESISKFPDMGSLWVEF [RPB5]
3. IEEIEYNVKNIIQGRKN [PCI8]
4. EIENLDKELRKTKFQYK [YIL149C/MLP2]
5. YQGVYSMGSILLSFVLG [YML031W/NDC1]
6. VSCYRPRRDGERKRKSV [RPS6A]
7. SLQQMQHLQQLKMQQQQ [GAL11]

1. 3.18
2. 2.77
3. 2.39
4. 3.07
5. 2.58
6. 3.51
7. 2.36

###

Please go through the items and note down their protein stability index.
assaySummary: protein stability index of a GFP-peptide fusion (yeast GPS) (PSI 1-4); higher = more stable; sorted into four equal gates, so the index is relative within each strain
testConditions: doa10∆
Numbers only.

Use the examples below as a reference point.
# biopolymerSequence, observable, endpointValue
measured = [
    ("RVADEDANLNDLPETGF [IRR1]", "protein stability index", 3),
    ("FGDTKSESKQLGNTSSV [SWI3]", "protein stability index", 3.54),
    ("RLKEKGSRVLIFSQMSR [ISW2]", "protein stability index", 1.67),
]

Record protein stability index for all entries; do not skip any.
1. FIKFKLIQQVPPGLDAL [CDC53]
2. EKKAASAKQTAPNNSNG [MED7]

1. 2.29
2. 2.94

For each of the items listed, what is its protein stability index?
1. FWSFLDSLIFKDSSLNY [YJL039C/NUP192]
2. AKIDVMLTIARLGFFYN [RPN7]
3. SSFRPCPLSQQFCGIKE [BRR2]
4. KAKTTKKVVLRLECVKC [RPL42A]
5. DSMKYTISSLFVQLCEM [RPC82]
6. AFADRLGQYVQAHTLYN [PRE10]

3.22
2.44
2.45
1.64
1.86
2.22

###

For each record, write down the corresponding protein stability index.
assaySummary: protein stability index of a GFP-peptide fusion (yeast GPS) (PSI 1-4); higher = more stable; sorted into four equal gates, so the index is relative within each strain
testConditions: doa10∆

Some solved cases for reference:
# biopolymerSequence, endpointValue
data = [
    ("TGHSQGLVTAVAIAETD [FAS1]", 3.25),
    ("TKSGATTSEKQEVTNEA [GAL11]", 2.99),
    ("IVERETNWIIYPLWVMA [CSN12]", 2.81),
    ("SDPNNQSLNEMVKLIVM [YJL039C/NUP192]", 2.66),
    ("VKNTNANPVVATDPVAA [SWP82]", 2),
]

Please go through the list and note protein stability index for each sequence.
1. SRCHLVTKDTKKYSSKN [SRP68]
2. YSKDAKEIYYTPDPSEL [FAS2]
3. KIGPLGLSPKKVGEDIA [RPL12A]
4. KKEELVEIAYHKCDELI [RPO31]

1: 3.04; 2: 2.44; 3: 3.3; 4: 3.13

Can you give me protein stability index for all of these, one by one?
1. TRNEQTTIQTEKVRPTP [MCD1]
2. GHIPWHILAVKKMMNTL [SSN2]
3. DLIETSFTCFAQFVSNK [NUT1]
4. VTNFNSTNEDQNNSKHT [SRB5]
5. KRTIRIKTQQHILPEVP [TAF14]

1. 2.82
2. 2.45
3. 2.64
4. 3.18
5. 1.92

Batch request: protein stability index for each of the following sequences.
1. KTLTEEVTKSSHVENLE [YIL149C/MLP2]
2. FDQSTNVKVIMATNRAD [RPT3]
3. SGYVRSRGESDDSLNRL [RPS21A]
4. ISLAVEGEPVNSPNYFV [COR1]
5. GVLLPTRIKLLLTKNVS [RPS6A]

1: 2.81; 2: 2.12; 3: 2.94; 4: 3.09; 5: 1.43

Quick request: protein stability index for each listed item, please.
1. MQHNPLAGKRGPKSGST [PGD1]
2. PSENLLNIRIQTYGETT [RPC19]
3. MQFAKSKTVKVLKTLIE [RPN6]
4. QVLFQGLIYSFNEENGE [POP1]
5. EKAVEEKPAVKSYASLL [RPT3]
6. SLGFNEVFSRPEWMILT [RPO21]
7. WCTTCKSAENIIKMTIP [RET1]

2.94
1.85
1.24
3.1
2.89
1.5
3.08
